Target Or System: T1, mouse tissue factor pathway inhibitor (TFPI) (mouse, UniProt O54819 29-289, limits assumed)
T1 construct: bought; also called mTFPI; murine TFPI
T1 sequence (looked up): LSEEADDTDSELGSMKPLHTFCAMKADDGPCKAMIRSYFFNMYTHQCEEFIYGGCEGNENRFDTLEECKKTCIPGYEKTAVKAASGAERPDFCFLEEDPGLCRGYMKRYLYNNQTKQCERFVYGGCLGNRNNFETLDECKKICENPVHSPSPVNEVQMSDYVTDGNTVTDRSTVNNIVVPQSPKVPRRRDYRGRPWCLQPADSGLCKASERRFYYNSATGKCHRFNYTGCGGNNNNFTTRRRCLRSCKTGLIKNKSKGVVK
Assay Explanation: SPR, TFPI immobilized
Exercise: for every item that follows, state its recorded Improvement.
State the answer as a number, implicitly in fold.

binder 2A8 LC_D91W (Fab, V domains shown, also called 2A8-17) VH: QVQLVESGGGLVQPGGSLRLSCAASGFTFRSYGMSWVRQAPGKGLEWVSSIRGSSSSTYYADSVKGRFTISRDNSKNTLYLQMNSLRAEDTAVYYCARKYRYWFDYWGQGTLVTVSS VL: DIELTQPPSVSVAPGQTARISCSGDNLRNYYAHWYQQKPGQAPVVVIYYDNNRPSGIPERFSGSNSGNTATLTISGTQAEDEADYYCQSWWDGVPVFGGGTKLTVLG , Improvement observed: 4.32

Query 2A8 wild-type Fab (Fab, V domains shown, Fab with c-myc (or HA, or none) and 6xHis tag at the C-terminus of the heavy chain; also called 2A8wt; 2A8 wt) VH: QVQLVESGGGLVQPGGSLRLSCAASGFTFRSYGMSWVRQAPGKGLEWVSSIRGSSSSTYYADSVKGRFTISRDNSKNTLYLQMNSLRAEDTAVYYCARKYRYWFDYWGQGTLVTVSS VL: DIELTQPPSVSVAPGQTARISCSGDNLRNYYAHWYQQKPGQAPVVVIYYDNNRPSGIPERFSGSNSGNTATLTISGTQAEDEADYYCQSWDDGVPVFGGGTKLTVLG yields Improvement of 1

The binder listed as 2A8 HC_S31P (Fab, V domains shown, also called 2A8-2) VH: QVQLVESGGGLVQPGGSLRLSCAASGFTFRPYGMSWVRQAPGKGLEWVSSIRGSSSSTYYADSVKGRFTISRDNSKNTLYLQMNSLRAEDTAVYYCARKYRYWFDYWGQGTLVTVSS VL: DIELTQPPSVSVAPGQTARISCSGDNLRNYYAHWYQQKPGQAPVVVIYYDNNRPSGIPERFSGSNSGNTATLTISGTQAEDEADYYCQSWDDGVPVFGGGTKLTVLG shows Improvement equal to 1.71

// sample 2A8 HC_S31V (Fab, V domains shown, also called 2A8-3) VH: QVQLVESGGGLVQPGGSLRLSCAASGFTFRVYGMSWVRQAPGKGLEWVSSIRGSSSSTYYADSVKGRFTISRDNSKNTLYLQMNSLRAEDTAVYYCARKYRYWFDYWGQGTLVTVSS VL: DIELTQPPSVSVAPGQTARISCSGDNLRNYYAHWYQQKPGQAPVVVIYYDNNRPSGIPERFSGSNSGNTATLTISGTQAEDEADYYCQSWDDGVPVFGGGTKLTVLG , its Improvement was 5.91

Briefly, Improvement measured for 2A8 HC_G33P (Fab, V domains shown, also called 2A8-1) VH: QVQLVESGGGLVQPGGSLRLSCAASGFTFRSYPMSWVRQAPGKGLEWVSSIRGSSSSTYYADSVKGRFTISRDNSKNTLYLQMNSLRAEDTAVYYCARKYRYWFDYWGQGTLVTVSS VL: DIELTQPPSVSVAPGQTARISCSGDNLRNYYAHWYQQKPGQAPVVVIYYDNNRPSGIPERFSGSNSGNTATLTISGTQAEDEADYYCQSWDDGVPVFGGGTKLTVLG : 2.21

Improvement recorded for this binder, 2A8 HC_K99L (Fab, V domains shown, also called 2A8-9) VH: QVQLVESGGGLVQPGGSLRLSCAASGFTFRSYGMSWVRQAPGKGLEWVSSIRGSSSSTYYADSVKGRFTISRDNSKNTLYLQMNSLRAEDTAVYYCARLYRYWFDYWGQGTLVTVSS VL: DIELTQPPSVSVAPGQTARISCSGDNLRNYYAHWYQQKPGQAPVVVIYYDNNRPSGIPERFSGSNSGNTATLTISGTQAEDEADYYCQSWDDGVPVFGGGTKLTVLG , is 7.2

Recorded result, 2A8 HC_S35D (Fab, V domains shown, also called 2A8-4) VH: QVQLVESGGGLVQPGGSLRLSCAASGFTFRSYGMDWVRQAPGKGLEWVSSIRGSSSSTYYADSVKGRFTISRDNSKNTLYLQMNSLRAEDTAVYYCARKYRYWFDYWGQGTLVTVSS VL: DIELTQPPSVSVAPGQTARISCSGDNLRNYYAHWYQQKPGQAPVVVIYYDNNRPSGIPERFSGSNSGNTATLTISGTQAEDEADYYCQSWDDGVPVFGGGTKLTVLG , Improvement: 1.78
